Tested on: CL 4931, CL 5053, CL 5242 and CL 4877
Format: cell-based, E. faecium, E. faecalis
Settings: mean of CL4931, CL5053, CL5242, CL4877; unit not given
readout-type: Mean
No unit in the answer, please; the number alone is enough.

Please give the measured Mean for this compound: CNC(CC(C)C)C(=O)NC1C(=O)NC(CC(N)=O)C(=O)NC2C(=O)NC3C(=O)NC(C(=O)NC(C(=O)O)c4cc(O)cc(O)c4-c4cc3ccc4O)C(O)c3ccc(c(Cl)c3)Oc3cc2cc(c3OC2OC(CN)C(O)C(O)C2OC2CC(C)(NCc3ccc(OCc4ccc([N+](=O)[O-])cc4)cc3)C(O)C(C)O2)Oc2ccc(cc2Cl)C1O (stereo not drawn) 27

Now try CNC(CC(C)C)C(=O)NC1C(=O)NC(CC(N)=O)C(=O)NC2C(=O)NC3C(=O)NC(C(=O)NC(C(=O)O)c4cc(O)cc(O)c4-c4cc3ccc4O)C(O)c3ccc(c(Cl)c3)Oc3cc2cc(c3OC2OC(CN)C(O)C(O)C2OC2CC(C)(NCc3ccc(Oc4ccc(Cl)c(Cl)c4)cc3)C(O)C(C)O2)Oc2ccc(cc2Cl)C1O (stereo not drawn) . 6.5

Now try CNC(CC(C)C)C(=O)NC1C(=O)NC(CC(N)=O)C(=O)NC2C(=O)NC3C(=O)NC(C(=O)NC(C(=O)O)c4cc(O)cc(O)c4-c4cc3ccc4O)C(O)c3ccc(c(Cl)c3)Oc3cc2cc(c3OC2OC(CN)C(O)C(O)C2OC2CC(C)(NCc3ccc(OCc4ccc(Cl)cc4)cc3)C(O)C(C)O2)Oc2ccc(cc2Cl)C1O (stereo not drawn) . 7.25
